test: ATG_GLI_CIS: Attagene CIS-FACTORIAL HepG2 Assay for human Zinc Finger Protein GLI1 (AID 2282945); details: HepG2, Attagene cis-factorial reporter mRNA, GLI element; actives raise or lower the signal
Active and inactive are the calls of the source. Rule for the calls: active = hit-call score of the fitted dose curve at least 0.9, where 1 is the maximum; inactive = score below 0.9.
Reply using exactly one outcome from active, inactive

Query: recorded result category for CC(C)(C)C(=O)c1ccccc1 in this test
inactive

Query: recorded result category for CCCCCCCCCCC(CO)CCCCCCCC (stereo not given) in this test
inactive

Query: recorded result category for BrC1CCC(Br)C(Br)CCC(Br)C(Br)CCC1Br (stereo not given) in this test
active

Query: recorded result category for CC(C)C1CCC(O)CC1 (stereo not given) in this test
inactive

Query: recorded result category for CCCCCCCCC=O in this test
inactive

Query: recorded result category for c1cc(C(c2ccc(OCC3CO3)cc2)c2ccc(OCC3CO3)cc2)ccc1OCC1CO1 (stereo not given) in this test
inactive

Query: recorded result category for COc1ccc(NC(=O)CC(C)=O)cc1 in this test
inactive

Query: recorded result category for CNC(=O)Oc1ccc2c(c1)[C@]1(C)CCN(C)[C@@H]1N2C in this test
inactive

Query: recorded result category for COc1cc(C)cc(O)c1 in this test
inactive

Query: recorded result category for C#C[C@]1(O)CC[C@H]2[C@@H]3CCC4=Cc5oncc5C[C@]4(C)[C@H]3CC[C@@]21C in this test
active

Query: recorded result category for O=C(O)CCSCCC(=O)O in this test
inactive

Query: recorded result category for CC(CCO)CCc1ccccc1 (stereo not given) in this test
inactive

Query: recorded result category for CCCc1ccccc1O in this test
inactive

Query: recorded result category for CCCCC(CC)COC(=O)/C=C\C(=O)OCC(CC)CCCC (stereo not given) in this test
inactive

Query: recorded result category for O=C(O)c1snc(Cl)c1Cl in this test
inactive

###

target: human Ephrin type-A Receptor 1 (EphA1), EPHA1 (gene 2041); experiment: NVS_ENZ_hEphA1: NovaScreen (NVS) Enzymatic Assay for human Ephrin type-A Receptor 1 (EphA1) (AID 2283158);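 note: activity is signal loss versus DMSO meaning EphA1 kinase inhibition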
Records with an inconclusive call do not appear. Activity calls are given as the source filed them. Rule for the calls: active = hit-call score of the fitted dose curve at least 0.9, where 1 is the maximum; inconclusive = response in the unintended direction; inactive = score below 0.9.
Reply using exactly one outcome from active, inactive

Query: recorded result category for CCCCC/C=C/C=C/C=O in this test
inactive

Query: recorded result category for OCC(CO)(CO)COCC(CO)(CO)CO in this test
inactive

Query: recorded result category for Cc1ccc2ccccc2n1 in this test
inactive

Query: recorded result category for CCO[Si](CCCS)(OCC)OCC in this test
inactive

Query: recorded result category for CCCCO in this test
inactive

Query: recorded result category for COc1cc2ncnc(Nc3cccc(Cl)c3)c2cc1OC in this test
inactive

Query: recorded result category for CCn1c2ccccc2c2cc(N)ccc21 in this test
active

###

target: bovine Estrogen Receptor (ER), ESR1 (gene 407238) (UniProt P49884); experiment: NVS_NR_bER: NovaScreen (NVS) Nuclear Receptor Binding Assay for bovine Estrogen Receptor (ER) (AID 2283345);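 note: actives lower the bound radioligand count which means they displace the ER ligand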
Sequence (P49884 whole entry, looked up): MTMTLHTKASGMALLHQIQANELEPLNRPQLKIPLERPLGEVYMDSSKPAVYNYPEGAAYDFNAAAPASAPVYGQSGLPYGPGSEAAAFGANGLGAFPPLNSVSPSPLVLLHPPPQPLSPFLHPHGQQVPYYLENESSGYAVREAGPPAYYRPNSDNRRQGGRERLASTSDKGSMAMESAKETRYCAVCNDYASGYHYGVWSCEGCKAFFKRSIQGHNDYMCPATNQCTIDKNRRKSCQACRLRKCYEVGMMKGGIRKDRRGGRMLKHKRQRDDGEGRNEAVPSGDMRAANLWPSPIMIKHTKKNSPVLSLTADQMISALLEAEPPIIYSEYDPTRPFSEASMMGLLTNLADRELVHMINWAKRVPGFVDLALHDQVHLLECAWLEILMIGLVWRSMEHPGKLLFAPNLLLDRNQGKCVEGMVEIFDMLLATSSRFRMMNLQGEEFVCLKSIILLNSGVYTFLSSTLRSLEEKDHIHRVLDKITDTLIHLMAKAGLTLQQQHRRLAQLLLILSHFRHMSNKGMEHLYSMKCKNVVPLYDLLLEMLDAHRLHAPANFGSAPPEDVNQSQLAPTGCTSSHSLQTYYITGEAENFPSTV
Results filed as inconclusive are left out. Active and inactive are the calls of the source. How the source made its calls: active means hit-call score of the fitted dose curve at least 0.9, where 1 is the maximum; inconclusive means response in the unintended direction; inactive means score below 0.9.
Reply using exactly one outcome from active, inactive

Query: recorded result category for NC(=O)Nc1ccc(Cl)cc1 in this test
inactive

Query: recorded result category for CNCCCC12CCC(c3ccccc31)c1ccccc12 in this test
inactive

Query: recorded result category for C#C[C@]1(O)CC[C@H]2[C@@H]3CCC4=Cc5oncc5C[C@]4(C)[C@H]3CC[C@@]21C in this test
inactive

Query: recorded result category for NNc1nc(-c2ccc(N)cc2)cs1 in this test
inactive

Query: recorded result category for CC1=CCC2C(C1)C2(C)C (stereo not given) in this test
inactive

Query: recorded result category for Cc1cc(C2(c3cc(C)c(O)cc3C)OS(=O)(=O)c3ccccc32)c(C)cc1O in this test
active

Query: recorded result category for CC(C)c1cccc(O)c1 in this test
inactive

Query: recorded result category for c1cc(C(c2ccc(OCC3CO3)cc2)c2ccc(OCC3CO3)cc2)ccc1OCC1CO1 (stereo not given) in this test
inactive

Query: recorded result category for CN(C)c1ccc(O)c2c1C[C@H]1C[C@H]3[C@H](N(C)C)C(=O)C(C(N)=O)=C(O)[C@@]3(O)C(=O)C1=C2O in this test
inactive

Query: recorded result category for CCCc1c(OCCCOc2ccc(OCC(=O)O)cc2)ccc(C(C)=O)c1O in this test
inactive
